method summary: Plasma concentrations of TQS-168 and TQS-621 after single oral dose 50 mg/kg in mice, three formulations
Format: in vivo
run parameters: male, C57BL/6, mouse, plasma, po, 50 mg/kg, mice, 50 mg/kg p.o., Group 2 (solution, PEG 400/Kleptose/water), 2 hr, mean; read-out: Calculated Concentration in plasma
readout: concentration at 2 h (ng/mL)
Just the number please, in ng/mL, no unit attached.

Recall and state the measured concentration at 2 h for "CC(C)(C)c1ccc(-c2nc3ccccc3[nH]2)cc1" .
1760

* * *

method summary: Phase 1 single ascending dose (SAD) trial, plasma pharmacokinetics (Part 1)
run parameters: male, human, in vivo, po, 180 mg, Tmax, human plasma; Regimen E: 180 mg TQS-168 HME oral suspension, fasted, single dose; median
readout: Tmax (h)
State the answer as a number, implicitly in h.

Item "CC(C)(C)c1ccc(-c2nc3ccccc3[nH]2)cc1" : provide Tmax
1.5
